- experimental.system: CDK6/cyclin D1 (Homo sapiens) (UniProt P24385+Q00534)
- test.description: Inhibition of human CDK6/cycD1 expressed in Sf9 cells at 100 uM; values are per cent of control
quantity: residual activity (%)
Give your result in % as a bare value.

Request: residual activity, test system CDK6/cyclin D1 (Homo sapiens) (UniProt P24385+Q00534), entry O=C1NC(=O)C(c2ccccc2)=C1c1ccccc1
65

Now the compound COc1ccc(C2=C(c3c[nH]c4ccccc34)C(=O)NC2=O)cc1OC
71

Would you kindly repeat that for COc1cc(C2=C(c3c[nH]c4ccccc34)C(=O)NC2=O)cc(OC)c1OC [MALEIMIDE] ?
18

Also, COc1ccc2[nH]cc(C3=C(c4cc(OC)c(OC)c(OC)c4)C(=O)NC3=O)c2c1 please.
94

Likewise for O=C1NC(=O)c2c1c1ccccc1c1[nH]c3ccccc3c21 ?
48

Can you check COc1ccc2[nH]c3c4c(OC)c(OC)c(OC)cc4c4c(c3c2c1)C(=O)NC4=O next?
63

Values were extracted from ChEMBL document CHEMBL1149451.
